Origin of measurements: patent US20190248900A1

- SYSTEM_NAME: T1, M11
- T1 construct: also called PD1 mutant M11
- EXPERIMENTAL_DETAILS: scFv-phage ELISA
Listed here: items and their measured OD490.
Number only, no unit.

PD1-31F3 (antibody, V domains shown, scFv-phage in the screening ELISA; later whole IgG) VH: QVQLVQSGAEVKKPGSSVKVSCKASGGTFSSYAISWVRQAPGQGLEWMGGIIPLFSTAHSAQKFQGRVTITADESSSTAYMELSSLRSEDTAVYYCAKHKGLPFDWSPDGFDTWGQGTMVTVSS VL: QFVLTQPPSVSGAPGQRVIISCTGSSSNIGAGYDVHWYQQLPGTAPKVLIYGNSDRPSGVPDRFSASKSATSASLAITGLQAEDEADYYCQSYDSSLSGYVFGTGTKVTVL: 0.8

I would be grateful if you could share the reported OD490 for PD1-41C9 (antibody, V domains shown, scFv-phage in the screening ELISA; whole IgG in the other assays) VH: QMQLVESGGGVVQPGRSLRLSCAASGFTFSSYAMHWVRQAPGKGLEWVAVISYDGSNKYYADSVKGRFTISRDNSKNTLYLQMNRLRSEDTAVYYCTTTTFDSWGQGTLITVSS VL: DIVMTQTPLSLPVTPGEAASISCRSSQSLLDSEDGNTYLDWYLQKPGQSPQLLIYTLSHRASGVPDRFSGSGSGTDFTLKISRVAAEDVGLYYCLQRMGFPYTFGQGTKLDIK .
0.9

I would be grateful if you could share the reported OD490 for PD1-48A9 (antibody, V domains shown, scFv-phage in the screening ELISA; whole IgG in the other assays) VH: QMQLVQSGAEVKKPGSSVKVSCKASGDTFTRYIINWVRQAPGQGLEWMGRVIPTLGLTTYAQNFQDTVTIIADKSTNTAYMELKNLRSEDTAVYYCARGYGSGAFDIWGQGTMITVSS VL: DIVMTQTPLSLPVTPGEPASISCRSSQSLLDSHDGNTYLDWYLQKPGQSPQLLIYTLSHRASGVPDRFSGSGSGTDFTLKISRVEAEDVGLYYCMQRIDFPYTFGQGTKVEIK .
0.3

I would be grateful if you could share the reported OD490 for PD1-51D9 (antibody, V domains shown, scFv-phage in the screening ELISA; whole IgG in the other assays) VH: QVQLVESGAEVKKPGASVKLSCKASGYTFSSYWMHWVRQAPGQRLEWMGEINPGNGHTNYNEKFKSRVTITVDKSASTAYMELSSLRSEDTAVYYCAREGDGSYWGYFDSWGQGTPITVSS VL: DIVMTQTPLSLPVTPGEPASISCRSSQSLLHSNGNNYLDWYLQKPGQSPQLLIYLGSYRASGVPDRFSGSGSGTDFTLKISRVEAEDVGLYYCMQGLQIPSTFGPGTKVDIK .
0.1

I would be grateful if you could share the reported OD490 for PD1-45D6 (antibody, V domains shown, scFv-phage in the screening ELISA; whole IgG in the other assays) VH: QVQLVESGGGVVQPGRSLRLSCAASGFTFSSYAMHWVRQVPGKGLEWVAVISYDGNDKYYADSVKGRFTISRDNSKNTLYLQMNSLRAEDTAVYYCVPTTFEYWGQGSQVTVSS VL: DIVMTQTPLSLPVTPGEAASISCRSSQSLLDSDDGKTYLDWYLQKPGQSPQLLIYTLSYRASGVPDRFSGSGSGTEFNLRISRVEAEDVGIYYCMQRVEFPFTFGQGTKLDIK .
0.7

I would be grateful if you could share the reported OD490 for PD1-32A6 (antibody, V domains shown, scFv-phage in the screening ELISA; later whole IgG) VH: QVQLVQSGAEVKKPGSSVKVSCKASGDTFTRNAVSWVRQAPGEGLEWMADIIPIFGSANYAQKFQGRLTLTADVSTSTAYMELSSLRSEDTAVYYCARTIEGAFDIWGQGTMVTVSS VL: DIQMTQSPSSVSASVGDRVTITCRASQGIVSWLAWYQQKPGKAPRLLIYRASDLETGVPSRFSGSGSGTDFTLTISSLQPEDVATYYCQQADSFPLTFGGGTKVEIK .
3.3
